This collection of values is drawn from the supplement of paper PMC9112550.

Test system: Escherichia coli TOP10
Assay: shrunken log2 fold change of peptide-encoding DNA abundance (4.5 h post-induction vs induction); higher = less antimicrobial activity (less host growth inhibition)
Details: time post-induction: 4.5 h; library: site-saturation at positions 5, 18, 19, 20

residue-string | shrunken log2 fold change
RRIRFRPPRLPRPRPRPDKFPRP | -0.0567
RRIRARPPRLPRPRPRPKWQPRP | 0.0511
RRIRMRPPRLPRPRPRPYISPRP | -0.353
RRIRERPPRLPRPRPRPPWPPRP | 0.408
RRIRHRPPRLPRPRPRPNQFPRP | -0.789
RRIRFRPPRLPRPRPRPMDTPRP | -0.165
RRIRGRPPRLPRPRPRPEGGPRP | 1.17
RRIRKRPPRLPRPRPRPQDGPRP | 0.013
RRIRIRPPRLPRPRPRPQSHPRP | -0.383
RRIRCRPPRLPRPRPRPGMTPRP | 0.0507
RRIRQRPPRLPRPRPRPWQLPRP | -0.0199
RRIRGRPPRLPRPRPRPPQKPRP | 1.35
RRIRCRPPRLPRPRPRPTPGPRP | 0.589
RRIRIRPPRLPRPRPRPKSFPRP | 0.0398
RRIRMRPPRLPRPRPRPQPPPRP | 1.18

====

Test system: Escherichia coli TOP10
Assay: shrunken log2 fold change of peptide-encoding DNA abundance (4.5 h post-induction vs induction); higher = less antimicrobial activity (less host growth inhibition)
Settings: time post-induction: 4.5 h; library: site-saturation at positions 5, 18, 19, 20
Assign class by shrunken log2 fold change: not lower than -0.3 means condition met; lower than -0.3 means condition not met.

residue-string | system-under-test | group-label
RRIRVRPPRLPRPRPRPTRFPRP | Escherichia coli TOP10 | condition met
RRIRVRPPRLPRPRPRPRTLPRP | Escherichia coli TOP10 | condition met
RRIRRRPPRLPRPRPRPLDLPRP | Escherichia coli TOP10 | condition met
RRIRGRPPRLPRPRPRPEMMPRP | Escherichia coli TOP10 | condition met
RRIRTRPPRLPRPRPRPQYLPRP | Escherichia coli TOP10 | condition not met
RRIRSRPPRLPRPRPRPDSGPRP | Escherichia coli TOP10 | condition met
RRIRHRPPRLPRPRPRPLNTPRP | Escherichia coli TOP10 | condition not met

====

Test system: Escherichia coli TOP10
Experiment: shrunken log2 fold change of peptide-encoding DNA abundance (4.5 h post-induction vs induction); higher = less antimicrobial activity (less host growth inhibition)
Details: time post-induction: 4.5 h; library: site-saturation at positions 5, 18, 19, 20

residue-string | shrunken log2 fold change
RRIRGRPPRLPRPRPRPNQEPRP | 0.389
RRIRARPPRLPRPRPRPQEVPRP | -0.0933
RRIRHRPPRLPRPRPRPDRYPRP | -0.236
RRIRQRPPRLPRPRPRPWQIPRP | -0.0838
RRIRIRPPRLPRPRPRPVFSPRP | -0.626
RRIRIRPPRLPRPRPRPPFGPRP | 0.255
RRIRVRPPRLPRPRPRPLIEPRP | 0.103
RRIRLRPPRLPRPRPRPRIEPRP | -0.0339
RRIRNRPPRLPRPRPRPNIMPRP | -0.599
RRIRTRPPRLPRPRPRPGNQPRP | -0.0161
RRIRQRPPRLPRPRPRPFKCPRP | 0.00905
RRIRRRPPRLPRPRPRPLICPRP | 0.119
RRIRQRPPRLPRPRPRPKNLPRP | -0.186
RRIRFRPPRLPRPRPRPKKYPRP | -0.242
RRIRARPPRLPRPRPRPQTRPRP | 0.874

====

Reported shrunken log2 fold change by item:
Test system: Escherichia coli TOP10
Assay: shrunken log2 fold change of peptide-encoding DNA abundance (4.5 h post-induction vs induction); higher = less antimicrobial activity (less host growth inhibition)
Conditions: time post-induction: 4.5 h; library: site-saturation at positions 5, 18, 19, 20

residue-string | system-under-test | shrunken log2 fold change
RRIRCRPPRLPRPRPRPDVTPRP | Escherichia coli TOP10 | 0.0172
RRIRHRPPRLPRPRPRPGPNPRP | Escherichia coli TOP10 | 0.813
RRIRFRPPRLPRPRPRPEEGPRP | Escherichia coli TOP10 | 0.00408
RRIRLRPPRLPRPRPRPHEFPRP | Escherichia coli TOP10 | -0.0833
RRIRERPPRLPRPRPRPPREPRP | Escherichia coli TOP10 | 0.87
RRIRSRPPRLPRPRPRPAKFPRP | Escherichia coli TOP10 | -0.134
RRIRWRPPRLPRPRPRPWVSPRP | Escherichia coli TOP10 | -0.0613
RRIRHRPPRLPRPRPRPHSVPRP | Escherichia coli TOP10 | -0.0237
RRIRHRPPRLPRPRPRPFPNPRP | Escherichia coli TOP10 | -0.0913
RRIRKRPPRLPRPRPRPRCSPRP | Escherichia coli TOP10 | 0.305
RRIRIRPPRLPRPRPRPSPSPRP | Escherichia coli TOP10 | 0.0467
RRIRIRPPRLPRPRPRPLYTPRP | Escherichia coli TOP10 | -0.723
RRIRCRPPRLPRPRPRPCWFPRP | Escherichia coli TOP10 | -0.386
RRIRHRPPRLPRPRPRPYFHPRP | Escherichia coli TOP10 | -0.955
RRIRPRPPRLPRPRPRPNASPRP | Escherichia coli TOP10 | 0.0199
RRIRDRPPRLPRPRPRPEMYPRP | Escherichia coli TOP10 | 0.363
RRIRFRPPRLPRPRPRPKNNPRP | Escherichia coli TOP10 | -0.504
RRIRKRPPRLPRPRPRPVYNPRP | Escherichia coli TOP10 | -0.0144
RRIRFRPPRLPRPRPRPGIMPRP | Escherichia coli TOP10 | -0.124
RRIRHRPPRLPRPRPRPIMLPRP | Escherichia coli TOP10 | -0.389
RRIRVRPPRLPRPRPRPEMIPRP | Escherichia coli TOP10 | -0.0397
RRIRVRPPRLPRPRPRPNLSPRP | Escherichia coli TOP10 | -0.444
RRIRNRPPRLPRPRPRPTEHPRP | Escherichia coli TOP10 | 0.141
RRIRGRPPRLPRPRPRPDFPPRP | Escherichia coli TOP10 | 0.414
RRIRRRPPRLPRPRPRPWEPPRP | Escherichia coli TOP10 | 0.0979
RRIRSRPPRLPRPRPRPMIPPRP | Escherichia coli TOP10 | -0.109
RRIRWRPPRLPRPRPRPTIVPRP | Escherichia coli TOP10 | -0.33
RRIRRRPPRLPRPRPRPFDLPRP | Escherichia coli TOP10 | 0.0765
RRIRIRPPRLPRPRPRPKYLPRP | Escherichia coli TOP10 | -0.437
RRIRTRPPRLPRPRPRPADLPRP | Escherichia coli TOP10 | 0.0274
RRIRLRPPRLPRPRPRPWNEPRP | Escherichia coli TOP10 | -0.11
RRIRCRPPRLPRPRPRPSCMPRP | Escherichia coli TOP10 | -0.313

====

Test system: Escherichia coli TOP10
Experiment: shrunken log2 fold change of peptide-encoding DNA abundance (4.5 h post-induction vs induction); higher = less antimicrobial activity (less host growth inhibition)
Settings: time post-induction: 4.5 h; library: site-saturation at positions 5, 18, 19, 20

residue-string | shrunken log2 fold change
RRIRVRPPRLPRPRPRPMQDPRP | 0.0217
RRIRCRPPRLPRPRPRPYSNPRP | -0.655
RRIRSRPPRLPRPRPRPWPGPRP | -0.139
RRIRRRPPRLPRPRPRPVQTPRP | 0.178
RRIRFRPPRLPRPRPRPNFYPRP | -0.212
RRIRSRPPRLPRPRPRPKTYPRP | -0.543
RRIRVRPPRLPRPRPRPEWFPRP | -0.154
RRIRRRPPRLPRPRPRPQSKPRP | -0.0754
RRIRARPPRLPRPRPRPWWDPRP | -0.101
RRIRERPPRLPRPRPRPALCPRP | 0.0446
RRIRWRPPRLPRPRPRPEDNPRP | 0.547
RRIRVRPPRLPRPRPRPNCGPRP | 0.0742
RRIRFRPPRLPRPRPRPYGIPRP | -0.00674
RRIRARPPRLPRPRPRPILGPRP | 0.0597
RRIRKRPPRLPRPRPRPLPRPRP | 1.08

====

Test system: Escherichia coli TOP10;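 note: peptides expressed intracellularly from a pBAD plasmid library in pooled LB shake-flask culture, induced with 0.3% L-arabinose, DNA abundance read by NGS, three biological replicates, DESeq2 with apeglm shrinkage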
Assay: shrunken log2 fold change of peptide-encoding DNA abundance (4.5 h post-induction vs induction); higher = less antimicrobial activity (less host growth inhibition)
Conditions: time post-induction: 4.5 h; library: site-saturation at positions 5, 18, 19, 20

residue-string | shrunken log2 fold change
RRIRERPPRLPRPRPRPWAPPRP | -0.0362
RRIRRRPPRLPRPRPRPLWRPRP | 0.348
RRIRSRPPRLPRPRPRPVVYPRP | -0.0697
RRIRVRPPRLPRPRPRPPMDPRP | -0.291
RRIRWRPPRLPRPRPRPDAGPRP | 0.485
RRIRFRPPRLPRPRPRPGAMPRP | 0.0505
RRIRSRPPRLPRPRPRPEHAPRP | -0.0123
RRIRYRPPRLPRPRPRPHICPRP | -0.0358
RRIRSRPPRLPRPRPRPCLFPRP | -0.193
RRIRKRPPRLPRPRPRPIPAPRP | 0.945
RRIRSRPPRLPRPRPRPCPQPRP | 0.0538
RRIRRRPPRLPRPRPRPNVEPRP | 0.318
RRIRERPPRLPRPRPRPWPIPRP | -0.679
RRIRLRPPRLPRPRPRPMGYPRP | -0.126
RRIRYRPPRLPRPRPRPFCIPRP | -1.5
